These measurements were taken from patent US20190106460A1.

Could you please report measured Ki for the items listed next?
Biological target: T1, Beta Transducin repeat-containing protein (βTrCP), tag cleaved and complexed with Skp1 (UniProt Q9Y297 175-605; P63208 1-163)
T1 construct: the FP protocol says that Ki is determined from FP dose-response curves; also called βTrCP/Skp1
T1 sequence (Q9Y297 175-605, chain 1 of 2): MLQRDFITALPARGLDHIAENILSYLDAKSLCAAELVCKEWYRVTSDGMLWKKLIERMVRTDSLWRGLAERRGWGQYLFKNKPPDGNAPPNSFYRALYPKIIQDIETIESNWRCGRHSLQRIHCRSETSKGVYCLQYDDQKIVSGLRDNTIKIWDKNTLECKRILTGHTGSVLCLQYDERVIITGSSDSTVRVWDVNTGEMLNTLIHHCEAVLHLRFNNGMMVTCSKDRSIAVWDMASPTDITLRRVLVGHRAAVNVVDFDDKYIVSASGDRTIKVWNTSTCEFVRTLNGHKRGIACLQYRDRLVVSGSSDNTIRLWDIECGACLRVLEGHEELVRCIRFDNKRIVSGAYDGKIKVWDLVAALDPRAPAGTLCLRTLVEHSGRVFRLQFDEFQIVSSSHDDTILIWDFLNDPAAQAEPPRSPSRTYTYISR
T1 sequence (P63208 whole entry, chain 2 of 2): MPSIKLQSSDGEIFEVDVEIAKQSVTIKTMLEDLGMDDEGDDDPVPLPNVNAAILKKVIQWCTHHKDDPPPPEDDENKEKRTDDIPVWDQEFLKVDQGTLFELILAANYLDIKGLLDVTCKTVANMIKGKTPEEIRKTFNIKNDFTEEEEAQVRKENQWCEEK
Assay: FP competition dose-response, fluorescein-IkB peptide tracer on βTrCP/Skp1 (average Ki; assay not given)
Non-standard residues stand in square brackets, D forms with d. *: point of attachment. Benzenesulfonyl(4-OMe) = COc1ccc(S(=O)(=O)*)cc1; Benzoyl(4-tBu) = CC(C)(C)c1ccc(C(=O)*)cc1; Phe(3-F) = N[C@@H](Cc1cccc(F)c1)C(=O)O; Ahx = NCCCCCC(=O)O

**Q:** Please look up its Ki: {4‑Br‑2‑CH3‑PhSO2}-[dD]EG[Phe(3-F)]WE-NH2 (also called UBP043) [4-Br-2-CH3-PhSO2-dEGF(3F)WE-NH2]
**A:** 3.96 nM

**Q:** Further, for {Benzenesulfonyl(4-OMe)}-[dD]EG[Phe(3-F)]WE[Ahx]K(1‑naphthyloxycarbonyl)-NH2 (also called UBP069) [4-(MeO)PhSO2-dEGF(3F)WE-Ahx-K(NHOCO-1-Naph)-NH2] ?
**A:** 11.6 nM

**Q:** Further, for {Benzenesulfonyl(4-OMe)}-[dD]EG[Phe(3-F)]WE[Ahx]K(Benzoyl(4-tBu))-NH2 (also called UBP054) [4-(MeO)PhSO2-dEGF(3F)WE-Ahx-K(NHCO-(4-(t-Bu-Ph))-NH2] ?
**A:** 1.94 nM

**Q:** Further, for {2,4‑(Br)2‑PhSO2}-[dD]EG[Phe(3-F)]WE-NH2 (also called UBP049) [2,4-(Br)2-PhSO2-dEGF(3F)WE-NH2] ?
**A:** 45.3 nM
